Reference for the values: patent EP4471048A1

Biological target: human IL-23R (Homo sapiens, UniProt Q5VWK5)
Sequence (Q5VWK5 22-629): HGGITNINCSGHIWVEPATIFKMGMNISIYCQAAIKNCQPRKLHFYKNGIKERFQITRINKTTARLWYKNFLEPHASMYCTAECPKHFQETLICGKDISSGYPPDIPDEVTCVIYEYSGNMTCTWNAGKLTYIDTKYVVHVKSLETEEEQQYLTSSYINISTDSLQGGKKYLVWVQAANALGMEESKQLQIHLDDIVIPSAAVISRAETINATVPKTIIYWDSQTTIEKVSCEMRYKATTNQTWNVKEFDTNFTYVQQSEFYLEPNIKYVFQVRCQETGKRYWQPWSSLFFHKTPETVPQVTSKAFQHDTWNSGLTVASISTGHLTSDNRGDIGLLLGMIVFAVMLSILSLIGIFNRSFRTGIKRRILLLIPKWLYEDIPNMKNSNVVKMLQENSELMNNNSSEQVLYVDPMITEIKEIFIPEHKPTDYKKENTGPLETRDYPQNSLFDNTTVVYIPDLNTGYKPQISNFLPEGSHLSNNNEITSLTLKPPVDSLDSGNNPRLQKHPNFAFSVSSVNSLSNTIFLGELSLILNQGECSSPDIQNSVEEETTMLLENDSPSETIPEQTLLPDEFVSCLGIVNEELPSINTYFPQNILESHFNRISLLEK
Assay: biochemical
Conditions: read-out: % displacement (hIL-23R NIuc)
Where a SMILES comes first, the peptide text is derived from it. Bridges are numbered along the chain shown (N, C = ends). [ ]: non-standard residue; d: D form. 2Nal = N[C@@H](Cc1ccc2ccccc2c1)C(=O)O; AEF = NCCOc1ccc(C[C@H](N)C(=O)O)cc1; 3Pal = N[C@@H](Cc1cccnc1)C(=O)O; αMeL = CC(C)C[C@](C)(N)C(=O)O; NMeK = CN[C@@H](CCCCN)C(=O)O; dDab = NCC[C@@H](N)C(=O)O; Dab = NCC[C@H](N)C(=O)O; βAla = NCCC(=O)O
In this section we review reported Emax values for a set of compounds.
Your answer is read as %, so omit the unit and give the number.

>  <compound>
CC(C)C[C@]1(C)NC(=O)[C@H](Cc2ccc3ccccc3c2)NC(=O)[C@H](Cc2ccc(OCCN)cc2)NC(=O)[C@@H]2CC(=O)N[C@H](CCNC(=O)CC[C@@H](C(=O)N[C@@H](CCN)C(=O)N[C@@H](Cc3cccnc3)C(N)=O)NC1=O)C(=O)N[C@@H]([C@@H](C)O)C(=O)N[C@@H](C(C)C)C(=O)N[C@@H](Cc1c[nH]c3ccccc13)C(=O)N[C@@H](CCC(N)=O)C(=O)N2 [Compound 11] ([dDab]TVWQD[AEF][2Nal][αMeL]E[Dab][3Pal]-NH2; lactam 1-10, N-6)

>  <measured-target>
human IL-23R (Homo sapiens, UniProt Q5VWK5)

>  <unit-string>
%

>  <Emax>
104

$$$$

Given item CNC(=O)[C@H](Cc1cccnc1)NC(=O)[C@H](CCN)NC(=O)[C@@H]1CCC(=O)NCCCC[C@H]2C(=O)NCCC(=O)N[C@@H](Cc3c[nH]c4ccccc34)C(=O)N[C@@H](CCC(N)=O)C(=O)N[C@@H](CCC(=O)N2C)C(=O)N[C@@H](Cc2ccc(OCCN)cc2)C(=O)N[C@@H](Cc2ccc3ccccc3c2)C(=O)N[C@@](C)(CC(C)C)C(=O)N1 [Compound 80] ([NMeK][βAla]WQE[AEF][2Nal][αMeL]E[Dab][3Pal]-NHMe; lactam 1-9, N-5) , the value recorded as its Emax is 102
